System: DeltatarO mutant
MEASUREMENT_DESCRIPTION: S. aureus survival, RN4220 and DeltatarO strains – OD600, teichoic acid synthesis inhibitors, primary screen (AID 463173)
COND: S. aureus RN4220 wild type/DeltatarO growth, OD600, 18 h, active compounds read low, screened at 18.75 µg/mL (by protocol)
The campaign covered roughly 52,000 compounds. About 4,300 (8.3%) were called active. This is one part of a sample in which actives are shown more often than they occur.
Each record's survival is compared with LOW: < 70%; MID: ≥ 70% and < 90%; HIGH: ≥ 90% to give its class.

Sample answers from the record:
COC(=O)c1cc2sccc2n1Cc1ccc(F)cc1: HIGH
CCOC(=O)C1CCCN(S(=O)(=O)c2ccc(Cl)cc2)C1 (centres undefined): HIGH
CCOC(=O)CSc1nc2sc3c(c2c(=O)n1-c1ccccc1)CCC(C(C)(C)C)C3 (centres undefined): LOW
CCOC(=O)CSc1nnc2n(-c3ccccc3)c(=O)c3c4c(sc3n12)COC(C(C)C)C4 (centres undefined): MID
COc1ccc(S(=O)(=O)c2c(O)c(C)cc(NC(=O)c3ccccc3)c2C(C)C)cc1: MID
COC(=O)CSc1nc2sc3c(c2c(=O)n1Cc1ccccc1)CCC(C(C)(C)C)C3 (centres undefined): LOW
CCOc1ccc(NC(=O)Cc2coc3ccc(C)cc23)cc1: HIGH
CCC(Sc1nc2ccccc2c2nc(-c3ccccc3)nn12)C(=O)Nc1cccc(OC)c1 (centres undefined): HIGH

In: Each compound maps to one class by survival. Which class for CCc1cc2c(cc(C(=O)OC)n2Cc2nc(-c3ccc(C)cc3)oc2C)s1 ?
Out: LOW

In: Lab note: which band did CSc1nc2sc3c(c2c(=O)n1Cc1ccccc1)CCC(C(C)(C)C)C3 (centres undefined) land in?
Out: HIGH

In: Which survival category applies to Cc1ccc(CNc2ccc(-c3nc(-c4cccnc4)no3)cc2[N+](=O)[O-])cc1 here?
Out: MID

In: Which class holds Cc1cccc(Cc2c(C)nc3nc(SCc4cccc(F)c4)nn3c2C)c1 ?
Out: MID

In: Which bin, given its survival, does CCOC(=O)CSc1nnc2n(-c3ccccc3)c(=O)c3c4c(sc3n12)CC(C(C)(C)C)CC4 (centres undefined) occupy?
Out: LOW

In: Band for the recorded survival of COc1cc(NC(=O)Cc2noc3ccccc23)cc(OC)c1OC ?
Out: LOW

In: Just checking, what class would you give Cc1ccc(CNc2ccc(-c3nc(-c4ccncc4)no3)cc2[N+](=O)[O-])cc1 here?
Out: LOW

In: Bin this entry: COC(=O)c1cc2sccc2n1Cc1ccccc1
Out: LOW
